# Tested system: HIV-1 reverse transcriptase (Human immunodeficiency virus 1, UniProt P03366;P03366 P03366:600-1159,P03366:600-1039)
# Test details: filter; first 49 nt of RT1
# Setup conditions: tags: expressed in E. coli, purified per Davies et al. 1991
Readout label: Kd

> print(dat)
                                     binder  result
1  ATCCGCCTGAATAGCGATACTCAGAAGGATAAACTGTCCAGAACTTGGA (ssDNA) [RT1t49]    4 nM
